Values compiled from patent US20140023611A1.

target: rat NaP2b (SLC34A2) (Rattus norvegicus); construct: host or cells: HEK293; assay: Inhibition of NaP2b-mediated Pi (33P) uptake in transfected HEK293 cells, rat NaP2b; format: cell-based; settings: 33P Pi uptake, 0.1 mM phosphate, value given as pIC50 range
Sequence (Q9JJ09 whole entry): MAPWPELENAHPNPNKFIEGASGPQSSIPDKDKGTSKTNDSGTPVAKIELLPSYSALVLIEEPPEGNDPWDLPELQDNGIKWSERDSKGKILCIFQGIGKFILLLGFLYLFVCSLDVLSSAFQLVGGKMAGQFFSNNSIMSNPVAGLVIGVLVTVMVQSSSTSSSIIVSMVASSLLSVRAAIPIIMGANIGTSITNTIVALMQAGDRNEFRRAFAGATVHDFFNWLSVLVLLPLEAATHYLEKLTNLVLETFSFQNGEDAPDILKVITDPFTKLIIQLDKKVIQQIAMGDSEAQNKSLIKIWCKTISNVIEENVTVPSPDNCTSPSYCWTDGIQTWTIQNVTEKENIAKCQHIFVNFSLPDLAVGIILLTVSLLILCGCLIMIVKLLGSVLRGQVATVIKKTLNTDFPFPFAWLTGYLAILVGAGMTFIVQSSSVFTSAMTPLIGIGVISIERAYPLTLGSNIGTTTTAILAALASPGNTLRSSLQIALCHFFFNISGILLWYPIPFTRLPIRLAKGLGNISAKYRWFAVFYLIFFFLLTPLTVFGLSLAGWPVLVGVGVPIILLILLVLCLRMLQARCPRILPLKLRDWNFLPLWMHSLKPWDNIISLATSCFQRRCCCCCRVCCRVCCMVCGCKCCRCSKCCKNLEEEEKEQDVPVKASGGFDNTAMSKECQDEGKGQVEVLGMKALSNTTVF
Attribute Measured: IC50

For orientation, consider the following solved cases.
Answer with the recorded IC50 for the compound listed here: CN(CCN1CCOCC1)C(=O)c1cccc(C(=O)Nc2ccc(C(F)(F)F)cc2-c2cc(C(=O)N[C@H]3CCCc4ccccc43)ccn2)c1
1 to 7.94 µM

Answer with the recorded IC50 for the compound listed here: CCN(CC)CCN(C)Cc1cccc(C(=O)Nc2ccc(Cl)cc2-c2cc(NCc3cccc(C(F)(F)F)c3)ncn2)c1
10 to 31.6 µM

Answer with the recorded IC50 for the compound listed here: O=C(O)COc1cccc(SCc2cccc(C(=O)Nc3ccc(N4CCCCC4)cc3-c3cc(C(=O)NCc4cccc(C(F)(F)F)c4)ccn3)c2)c1
1 to 7.94 µM

Answer with the recorded IC50 for the compound listed here: CN(CCN1CCOCC1)C(=O)c1cccc(C(=O)Nc2ccc(N3CCCCC3)cc2-c2cc(C(=O)NCc3ccccc3OC(F)(F)F)ccn2)c1
1 to 7.94 µM

Answer with the recorded IC50 for the compound listed here: CN(CCN1CCC[C@H]1C(=O)OC(C)(C)C)C(=O)c1cccc(C(=O)Nc2ccc(N3CCCCC3)cc2-c2cc(C(=O)N[C@H]3CCCc4ccccc43)ccn2)c1
< 1 µM

Proceeding to the next compound to report its IC50.
Answer with the recorded IC50 for the compound listed here: O=C(NCc1cccc(C(F)(F)F)c1)c1ccnc(-c2cc(N3CCCCC3)ccc2NC(=O)c2cccc(Cn3ccc4c(C(=O)O)cccc43)c2)c1
1 to 7.94 µM
